Just for reference, PubChem BioAssay (NCI) is where these values come from.

tested on: UACC-62 melanoma; assay: NCI tumour cell line growth inhibition, 48 h
outcome.measure: TGI

| molecule | study.system | recorded.measurement |
| --- | --- | --- |
| O=C1c2cccc3cc([N+](=O)[O-])cc(c23)C(=O)N1O | UACC-62 melanoma | 81.4 µM |
| Cc1sc(/N=C2/NC(=O)CS2)nc1-c1nc(/N=C2/NC(=O)CS2)sc1C | UACC-62 melanoma | > 50 µM |
| C[C@]12CC[C@H](O)CC1=CC[C@@H]1[C@@H]2CC[C@]2(C)C(=O)CC[C@@H]12 | UACC-62 melanoma | > 100 µM |
| COC1=CC(=O)c2ccccc2C1(C)C1=NC(C)(C)CO1 (stereo not given) | UACC-62 melanoma | > 100 µM |
| CCNCCNc1cc(-c2cccc(C(F)(F)F)c2)c(C#N)c2nc3ccccc3n12 | UACC-62 melanoma | 3.2 µM |

* * *

tested on: SK-MEL-28 melanoma; test: NCI tumour cell line growth inhibition, 48 h
Reported TGI by item:
outcome.measure: TGI

| compound | recorded.measurement |
| --- | --- |
| CN1CCN(c2ccc3nc4c(nc3c2C(F)(F)F)C(=O)c2ncccc2C4=O)CC1 | 4.18 µM |
| COCC12CC(CC1=O)C1C2ON2c3ccccc3C(=O)C12c1ccccc1 (centres undefined) | > 100 µM |
| CCOC(=O)CNC(=O)C(CSC(=O)N(C)O)NC(=O)CCC(N)C(=O)O (centres undefined) | > 2000 µM |
| CCOC(=O)c1c(N2CCOCC2)[nH]c(=O)c(C(c2ccc(Cl)c([N+](=O)[O-])c2)c2c(O)c(C(=O)OCC)c(N3CCOCC3)[nH]c2=O)c1O | > 100 µM |
| c1ccc2nc3cc4c(cc3nc2c1)NC12CCCCC1CC1=C(CCCC1)N42 (centres undefined) | > 10 µM |
| Brc1ccc(Br)nn1 | 2.76 µM |
| CC(C)NC(=O)O/N=C1\CCC2[C@@H]3CC=C4C[C@@H](OC(=O)NC(C)C)CC[C@]4(C)C3CC[C@]12C (some centres undefined) | 3.26 µM |
| Oc1[nH]c2ccccc2c1N=NC(=S)N1CCCC1 | > 100 µM |
| CCOC(=O)C(Cc1cn(S(=O)(=O)c2ccc(C)cc2)cn1)P(=O)(OCC)OCC (centres undefined) | > 100 µM |
| O=C1/C(=C\c2c(-c3ccccc3)nn(-c3ccccc3)c2O)C(c2ccccc2)=NN1c1ccccc1 | > 100 µM |
| CC(OCc1ccccc1)C(NC(=O)C1CSSCC(NC(=O)C(Cc2ccccc2)NC(=O)OCc2ccccc2)C(=O)NC(Cc2ccccc2)C(=O)NC(Cc2cn(C=O)c3ccccc23)C(=O)NC(CCCCNC(=O)OCc2ccccc2)C(=O)NC(C(C)OCc2ccccc2)C(=O)N1)C(N)=O (centres undefined) | > 100 µM |
| O=C1c2cccc3cc([N+](=O)[O-])cc(c23)C(=O)N1O | > 100 µM |
| Cc1ccc(S(=O)(=O)NCCSS(=O)(=O)c2ccc(C)cc2)cc1 | 76.6 µM |
| COc1cccc2c1C(=O)c1c(O)c3c(c(O)c1C2=O)C[C@@](O)(/C(C)=N/NC(=O)c1ccc(Cl)c(Cl)c1)C[C@@H]3OC1CC(N)C(O)C(C)O1 (some centres undefined) | 0.274 µM |
| CON | > 100 µM |
| C/C(=N\Nc1cccc(Cl)n1)c1ccccn1 | > 100 µM |
| Cc1cc(C)c2c(c1)C(=O)C1(C2)Cc2c(ccc(C)c2C)C1=O (centres undefined) | > 100 µM |
| Cn1c2c(cc(-c3ccccc3)c1=O)COc1ccccc1-2 | 84.6 µM |
| C[N+](C)(Cc1ccc(NC(=O)CCCC(=O)ON2C(=O)CCC2=O)cc1)c1ccccc1 | < 0.01 µM |

* * *

system: SF-539 CNS; test: NCI tumour cell line growth inhibition, 48 h; in the data active = GI50 below about 0.43 µM; inactive = the rest
Outcome codes: true (1) (active), false (0) (inactive)

| compound | class.name |
| --- | --- |
| COc1cc(C2C(C#N)=C(N)Oc3cc4c(cc32)OCO4)cc2c1OCO2 (stereo not drawn) | true (1) |
| Cc1cc2nc3c4ccccc4n(CCN(C)C)c3nc2cc1C | false (0) |
| C[C@@H](Oc1cc(-c2cnn(C3CC4(CCCNC4)C3)c2)cnc1N)c1c(Cl)ccc(F)c1Cl (stereo partly drawn) | false (0) |
| COc1ccc(NC(=O)O[C@H]2[C@H](O[C@H]3[C@@H](O)COC(O[C@H]4C[C@H]5[C@@H]6CC=C7C[C@@H](O)CC[C@]7(C)[C@H]6CC[C@]5(C)[C@H]4[C@H](C)C(=O)CCC(C)C)[C@@H]3OC(C)=O)OC[C@@H](O)[C@@H]2O)cc1 (stereo partly drawn) | true (1) |
| CN(NC(=O)CC(=O)NN(C)C(=S)c1ccc(Cl)cc1)C(=S)c1ccc(Cl)cc1 | false (0) |
| Brc1ccc(Br)nn1 | false (0) |
| CCC[CH2][Sn]1([CH2]CCC)[O]C(=O)c2cc(C)ccc2[O]1 | false (0) |
| CC(=O)N[C@@H](Cc1ccc(OP(=O)(O)O)cc1)C(=O)N[C@H]1CCC(=O)N2CCC[C@@H](C(=O)NCc3ccc(O)cc3)N2C1=O | false (0) |

* * *

test system: RPMI-8226 leukemia; test: NCI tumour cell line growth inhibition, 48 h
Reported TGI by item:
outcome.measure: TGI

| compound | recorded.measurement |
| --- | --- |
| CS(=O)(=O)OCc1c(O)c2c(c(O)c1COS(C)(=O)=O)C(=O)C=CC2=O | > 100 µM |
| COC1=CC(=O)c2ccccc2C1(C)C1=NC(C)(C)CO1 (centres undefined) | > 100 µM |
| CCC[CH2][Sn]1([CH2]CCC)[O]C(=O)c2cc(C)ccc2[O]1 | 0.599 µM |
| O=C(CCc1cccc(O)c1)NCCc1cccc(OCc2ccccc2)c1 | > 60.1 µM |
| NC(N)=NS(=O)(=O)c1ccc(NNc2c3ccccc3nc3c(C(=O)Nc4ccc(S(N)(=O)=O)cc4)cccc23)cc1 | > 100 µM |
| COc1cccc(Nc2nccc(Nc3ccc4[nH]ncc4c3)n2)c1 | 4.19 µM |
| CCCCCn1cnc2c1S(=O)(=O)N(C)C(NC(=O)c1ccccc1)=N2 | > 100 µM |
| CCOc1ccc2c(c1)NC(=O)C(C1OC(c3ccccc3)=CC1=O)S2 (centres undefined) | 30.5 µM |
| CC[C@H](C)[C@H](NC(=O)C12CC(NC(C)=O)(C1)C2)C(=O)N(C)[C@H](C[C@@H](OC(C)=O)c1nc(C(=O)N[C@@H](Cc2ccccc2)C[C@H](C)C(=O)OC)cs1)C(C)C | > 3.64 µM |

* * *

test system: KM12 colon; assay: NCI tumour cell line growth inhibition, 48 h

| molecule | TGI |
| --- | --- |
| CCOC(=O)CC(N1CC1)N1CC1 | > 10 µM |
| CC(C)(C)C[P+](C)(C)c1ccccc1 | > 100 µM |
| CCOC(=O)CCc1c(C)[nH]c2c(C)c3c([nH]c4ccc(Cl)cc43)c(C)c2c1=O | 87 µM |
| O=C(/C=C/c1ccc(Cl)c(Cl)c1)C1CCC(Cl)CC1 (stereo unspecified) | 46.1 µM |
| OC1(c2ccc3ccccc3c2)c2ccc3ccccc3c2C2=NCCN21 (stereo unspecified) | > 100 µM |
| N#CC(c1ccccc1)N(CCc1ccccc1)C(=O)Oc1ccccc1 (stereo unspecified) | > 100 µM |

* * *

tested on: LXFL 529 NSCLC; experiment: NCI tumour cell line growth inhibition, 48 h
outcome.measure: TGI

| molecule | outcome.measure | recorded.measurement |
| --- | --- | --- |
| CC(C)Cc1cccc(C(C)C)c1NC(=O)CCC(=O)N/N=C1\C(=N/NC(=O)CCC(=O)Nc2c(C(C)C)cccc2C(C)C)C(c2ccc3c(c2)OCO3)Oc2ccccc21 (stereo not drawn) | TGI | > 100 µM |
| CC12OC3CC(O1)C1(C=O)C4CCC5(C)C(c6ccc(=O)oc6)CCC5(O)C4CCC1(C3)O2 (stereo not drawn) | TGI | 0.432 µM |
| CC(C)(C)C(=O)[CH-]C(=O)C(F)(F)C(F)(F)C(F)(F)F.CC(C)(C)C(=O)[CH-]C(=O)C(F)(F)C(F)(F)C(F)(F)F.[O-]CC1OC(O)C(O)C(O)C1O.[O-]CC1OC(O)C(O)C(O)C1O.[Ti+4] | TGI | > 100 µM |
| COC(=O)/C(=N\O)C(C(=O)C=C(C)C)C(=O)C(=O)Nc1ccccc1C (stereo not drawn) | TGI | > 100 µM |
| O=C(/N=C/c1c(O)c2ccccc2oc1=O)NC1CCCCC1 | TGI | > 100 µM |
| Nc1ccc(C(=O)NN2C(=O)C(Cl)C2c2cccc([N+](=O)[O-])c2)cc1 (stereo not drawn) | TGI | 34.9 µM |
| CCCOCN1COCN=C1NC#N | TGI | > 100 µM |
| COC1=CC(=O)c2ccccc2C1(C)C1=NC(C)(C)CO1 (stereo not drawn) | TGI | > 100 µM |
